Data origin, for the record: patent US20260263603A1

molecular target: Glucocorticoid receptor (GR) (Homo sapiens, UniProt P04150); details: @ 10 uM
Sequence (P04150 whole entry, species assumed): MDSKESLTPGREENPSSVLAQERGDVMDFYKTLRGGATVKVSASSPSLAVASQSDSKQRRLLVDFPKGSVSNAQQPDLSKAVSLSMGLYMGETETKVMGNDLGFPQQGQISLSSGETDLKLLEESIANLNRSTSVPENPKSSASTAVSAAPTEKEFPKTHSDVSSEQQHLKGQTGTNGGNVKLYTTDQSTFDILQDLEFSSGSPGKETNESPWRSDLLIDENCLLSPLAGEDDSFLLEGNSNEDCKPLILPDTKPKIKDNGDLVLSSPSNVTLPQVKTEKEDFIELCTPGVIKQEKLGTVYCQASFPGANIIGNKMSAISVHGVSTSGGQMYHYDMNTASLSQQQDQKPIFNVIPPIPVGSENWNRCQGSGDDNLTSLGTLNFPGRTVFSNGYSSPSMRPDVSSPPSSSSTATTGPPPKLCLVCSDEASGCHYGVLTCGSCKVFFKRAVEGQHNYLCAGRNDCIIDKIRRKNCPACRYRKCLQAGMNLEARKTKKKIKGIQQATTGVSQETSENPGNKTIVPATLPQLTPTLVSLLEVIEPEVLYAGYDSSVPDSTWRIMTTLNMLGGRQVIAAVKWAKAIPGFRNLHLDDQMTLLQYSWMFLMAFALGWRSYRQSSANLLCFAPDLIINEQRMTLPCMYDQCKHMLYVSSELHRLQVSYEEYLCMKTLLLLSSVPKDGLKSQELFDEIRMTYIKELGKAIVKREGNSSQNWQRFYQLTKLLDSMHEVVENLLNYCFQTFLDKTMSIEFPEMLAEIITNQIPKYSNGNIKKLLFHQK
Give GR Binding Data for every item shown.
Numbers only, in %.

C[C@@H]1C[C@H]2[C@@H]3CCC4=C/C(=N\NC(=O)[C@H](N)Cc5ccccc5)C=C[C@]4(C)[C@@]3(F)[C@@H](O)C[C@]2(C)[C@@]1(O)C(=O)CO [Compound VIIIB]	72
CC(C)C(N)C(=O)N/N=C(/CO)[C@@]1(O)[C@H](C)C[C@H]2[C@@H]3CCC4=CC(=O)C=C[C@]4(C)[C@@]3(F)[C@@H](O)C[C@@]21C (single isomer, unassigned) [Compound IVB]	72
C[C@@H]1C[C@H]2[C@@H]3CCC4=CC(=O)C=C[C@]4(C)[C@@]3(F)[C@@H](O)C[C@]2(C)[C@@]1(O)/C(CO)=N\NC(=O)C(N)Cc1ccccc1 (single isomer, unassigned) [Compound IIIB]	68

Input: Write down the reported GR Binding Data of CC(C)C(N)C(=O)N/N=C(/CO)[C@@]1(O)[C@H](C)C[C@H]2[C@@H]3CCC4=CC(=O)C=C[C@]4(C)[C@@]3(F)[C@@H](O)C[C@@]21C (single isomer, unassigned) [Compound IVA] , test system: Glucocorticoid receptor (GR) (Homo sapiens, UniProt P04150).
Output: 64
